Test system: NCI/ADR-RES ovarian
Assay: NCI tumour cell line growth inhibition, 48 h
Reported TGI by item:
Parameter measured: TGI

>>> df
                                   molecule    result
0  CCC(=O)c1c(C(F)(F)F)n([O-])c2ccc(C)cc2[n+]1=O   36.5 µM
1  COc1ccc(-n2cc(-c3cc(OC)c(OC)c(OC)c3)[nH]c2=O)cc1Cl  > 100 µM
2             Cc1cc(=O)n2nc(CN3CCCCC3)sc2n1  > 100 µM
3                        NNc1nncc2n[nH]nc12  > 100 µM
4  Nc1ncn(C2CC(O)C(CO)O2)c(=O)n1 (stereo unspecified)  > 375 µM
5  CC[CH2][Sn]([Cl])([Cl])[CH2]CC.Oc1ccccc1C=NCCN=Cc1ccccc1O   37.8 µM

----------
Tested on: SNB-19 CNS
Experiment: NCI tumour cell line growth inhibition, 48 h
Where a SMILES comes first, the peptide text is derived from it. The star is where a group is joined. Cbz = O=C(OCc1ccccc1)*; Boc = CC(C)(C)OC(=O)*; tBu = CC(C)(C)*
Reported TGI by item:

Compound	TGI
CCOC(=O)c1c(C)nc2c(c1N)/C(=C/c1ccc(OC)cc1)C(=O)N2Cc1ccc(F)cc1	1.87 µM
CC12CCC([C@H](C(O)C3CCCCC3)C1=O)C2(C)C (stereo partly drawn)	> 100 µM
CC(OC(C)(C)C)C(NC(=O)C(CCCCNC(=O)OC(C)(C)C)NC(=O)C(Cc1c[nH]c2ccccc12)NC(=O)C(Cc1ccccc1)NC(=O)OCc1ccccc1)C(=O)NC(Cc1ccccc1)C(=O)O (stereo not drawn) (Cbz-FWK(Boc)T(tBu)F-OH; configuration not given here)	52.8 µM

----------
Test system: COLO 205 colon
Assay: NCI tumour cell line growth inhibition, 48 h
Reported TGI by item:
Parameter measured: TGI

>>> df
                                   molecule  target_under_test    result
0  COc1ccc(/C=C\c2cc(OC)c(OC)c(OC)c2)cc1OC(=O)NCCN(C)C     COLO 205 colon   4.69 µM
1  CC(C)c1cc2c(O)c(c1)Cc1cc(C(C)C)cc(c1O)Cc1cc(C(C)C)cc(c1O)Cc1cc(C(C)C)cc(c1O)C2     COLO 205 colon  > 100 µM
2  COc1ccc2c3c(coc13)C(CCC(=O)O)CC2 (stereo not given)     COLO 205 colon  > 100 µM
3         Cc1ccc(C)c(COCCOCn2ccc(N)nc2=O)c1     COLO 205 colon  > 100 µM
4  N#CCc1ccc(C(C#N)/C(CCCC(=O)Nc2cccc([N+](=O)[O-])c2)=N/NC(N)=S)cc1 (stereo not given)     COLO 205 colon  > 100 µM

----------
Tested on: BT-549 breast
Experiment: NCI tumour cell line growth inhibition, 48 h
Parameter measured: GI50

>>> df
                                   compound  parameter_measured       result
0  O=C1NN(C2=NNC3(C(=O)N2)c2ccccc2-c2ccccc23)C(c2ccccc2)=N/C1=C/c1ccc(O)cc1                GI50  > 150 µg/mL
1  COC(=O)c1c(C)[nH]c(/C=C2\N=C(c3ccc[nH]3)C=C2OC)c1C                GI50       199 nM
2             C/C(=N\Nc1ccc(Cl)cn1)c1ccccn1                GI50       362 nM
3  COc1ccc(C2SCC(=O)N2NC(=O)Nc2c(C)nc3ccccn23)cc1 (stereo unspecified)                GI50     24200 nM
4  O=C(/C=C\n1cnc(-c2cc(C(F)(F)F)cc(C(F)(F)F)c2)n1)NNc1cnccn1                GI50      38.5 nM
5  CC1(C)N=C(N)N=C(N)N1c1ccc(OCc2ccc(S(=O)(=O)F)c(Cl)c2)c(Cl)c1                GI50     18900 nM

----------
Reported TGI by item:
Tested on: LOX IMVI melanoma
Experiment: NCI tumour cell line growth inhibition, 48 h
Parameter measured: TGI

Compound	Target under test	Result
CC12CCC([C@H](C(O)C3CCCCC3)C1=O)C2(C)C (some centres undefined)	LOX IMVI melanoma	> 100 µM
COC(=O)C(=O)C(C(=O)C=C(C)C)C(=O)C(=O)Nc1ccc(C)cc1C (centres undefined)	LOX IMVI melanoma	> 100 µM
CC(=O)Nc1ccc2[nH]c(C(=O)N3CC(CCl)c4c3cc(N)c3ccccc43)cc2c1 (centres undefined)	LOX IMVI melanoma	< 0.0255 µM
COc1ccc(O)c(/C(C)=N/NC(=S)N(C)C)c1	LOX IMVI melanoma	22.9 µM
COC(=O)C12C3C4C1C1C2C3C41NC(=O)c1csc([C@@H](C[C@H](C(C)C)N(C)C(=O)[C@@H](NC(=O)[C@H]2CCCCN2C)C2CC2)OC(C)=O)n1 (some centres undefined)	LOX IMVI melanoma	> 33.3 µM
O=c1[nH]c(=O)n(C2OC(CO)C(O)C(O)C2O)cc1F (centres undefined)	LOX IMVI melanoma	> 100 µM
CCCCOC(=O)NC(=O)c1cn(C2CCCCC2)c(=O)[nH]c1=O	LOX IMVI melanoma	> 100 µM
CNC(=O)N1CN(c2ccccc2)C2(CCN(CCCC3(c4ccc(F)cc4)OCCO3)CC2)C1=O	LOX IMVI melanoma	> 100 µM
CCNc1cc2c(cc1O)CC[C@@H]1[C@@H]2CC[C@]2(C)[C@@H](O)CC[C@@H]12	LOX IMVI melanoma	20.3 µM
CC1ON2CCCC2[C@H]1C(=O)N1C2CC3CCC2(CS1(=O)=O)C3(C)C (some centres undefined)	LOX IMVI melanoma	> 100 µM
COc1cc2c3c(n(CCNCCCNCCn4c5c(c6cc(OC)c(OC)cc6c4=O)C(=O)c4ccccc4-5)c(=O)c2cc1OC)-c1ccccc1C3=O	LOX IMVI melanoma	0.413 µM
N#Cc1cccc(NC(=O)c2cc(-c3ccc(F)cc3F)ccc2O)c1	LOX IMVI melanoma	6.58 µM
C=C1C(=O)O[C@H]2[C@H]1CC/C(COC(=O)c1cc3ccccc3s1)=C\CC[C@@]1(C)O[C@@H]21	LOX IMVI melanoma	0.509 µM
Cc1ccc2c3c(c(=O)[nH]c2c1)C1(C(C#N)=C(N)O3)c2cc(Br)ccc2-c2ccc(Br)cc21	LOX IMVI melanoma	3.25 µM
CC(C)N1CN(C(C(=O)N[C@@H]2C(=O)N3C2SC(C)(C)C3C(=O)O)c2ccccc2)CSC1=S (some centres undefined)	LOX IMVI melanoma	> 100 µM
CSc1nc2cc(S(=O)(=O)N3CCCCC3)ccc2s1	LOX IMVI melanoma	> 100 µM
COc1ccc(CCN2CCN(CCc3ccc(OC)cc3)CC2)cc1	LOX IMVI melanoma	> 100 µM
c1ccc(CSP234N5CCN2CCN3CCN4CC5)c(CSP234N5CCN2CCN3CCN4CC5)c1	LOX IMVI melanoma	> 100 µM
Cc1cccc2c(N)c3cccc(C(=O)NCC[N+](C)(C)Cc4c([N+](=O)[O-])ncn4C)c3nc12	LOX IMVI melanoma	35.6 µM

----------
Reported TGI by item:
System: CAKI-1 renal
Test: NCI tumour cell line growth inhibition, 48 h
Parameter measured: TGI (µM)

>>> print(df.to_string())
                                   compound  value_modifier  measured_number
0  Fc1ccc(C2SCc3nc4ccccc4n32)cc1Cl (centres undefined)               =             38.4
1  COc1ccc(-n2cc(-c3cc(OC)c(OC)c(OC)c3)[nH]c2=O)cc1Cl               >              100
2  c1ccc(CSP234N5CCN2CCN3CCN4CC5)c(CSP234N5CCN2CCN3CCN4CC5)c1               >              100
3  COc1cc2c(c(OC)c1OC)C(=O)[C@@H]1c3ccc([N+](=O)[O-])cc3C(=O)N(CCCBr)[C@H]21               =             14.2
4  C=C(C)C(=O)OC1CCC2(C)C(CCC3C2CCC2(C)C(c4ccc(=O)oc4)CC4OC432)C1 (centres undefined)               =               15
5     c1csc(-c2cc(-c3cccs3)c(-c3ccsc3)s2)c1               >              100
6  COc1ccc(-c2nnc(COc3ccc(NC(=O)Nc4ccc(Cl)c(C(F)(F)F)c4)cc3F)o2)cc1               =             29.2
7  C/C=C(/C)C(=O)O[C@H]1C[C@@H]2[C@@H](O)c3occ(C)c3C[C@]2(C)[C@@H](C)C1               =             33.3
8  Cc1ccc(NC(=O)c2cccc(OP(=O)(O)Nc3ccc(C)cc3)c2)cc1               >              100
